- Subject of test: S100B (Homo sapiens)
- Construct: made in house; host or cells: Escherichia coli BL21(DE3)
- Sequence (P04271 whole entry): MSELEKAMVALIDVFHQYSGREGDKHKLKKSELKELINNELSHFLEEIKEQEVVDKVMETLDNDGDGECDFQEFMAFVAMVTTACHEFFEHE
- Run description: Pull-down assay with immobilized protein and LSM libraries
- Assay type: binding
- Experimental setup: H12 library; 1:1 binding assumed; read-out: Surface mapping KD (apparent)
Assay metric: Kd (µM)
# unit: µM | format: bare number

NC(=O)C[C@@H](CC(=O)N[C@H]1CCC[C@@H]1C(=O)N[C@H]1CCC[C@@H]1C(N)=O)NC(=O)[C@H]1CCC[C@@H]1NC(=O)[C@H]1CCC[C@@H]1NC(=O)C[C@H](Cc1ccccc1)NC(=O)[C@H]1CCC[C@@H]1NC(=O)[C@H]1CCC[C@@H]1N | 109
CC(C)C[C@@H](CC(=O)N[C@H]1CCC[C@@H]1C(=O)N[C@H]1CCC[C@@H]1C(=O)N[C@@H](CCCCN)CC(=O)N[C@H]1CCC[C@@H]1C(=O)N[C@H]1CCC[C@@H]1C(N)=O)NC(=O)[C@H]1CCC[C@@H]1NC(=O)[C@H]1CCC[C@@H]1N | 54
NC(=O)[C@H]1CCC[C@@H]1NC(=O)[C@H]1CCC[C@@H]1NC(=O)C[C@H](Cc1c[nH]c2ccccc12)NC(=O)[C@H]1CCC[C@@H]1NC(=O)[C@H]1CCC[C@@H]1NC(=O)C[C@H](Cc1ccccc1)NC(=O)[C@H]1CCC[C@@H]1NC(=O)[C@H]1CCC[C@@H]1N | 10

Field Kd (entry `CC[C@H](C)[C@@H](CC(=O)N[C@H]1CCC[C@@H]1C(=O)N[C@H]1CCC[C@@H]1C(=O)N[C@H](CC(=O)N[C@H]1CCC[C@@H]1C(=O)N[C@H]1CCC[C@@H]1C(N)=O)[C@@H](C)O)NC(=O)[C@H]1CCC[C@@H]1NC(=O)[C@H]1CCC[C@@H]1N` ) reads 216

* * *

# pKd annotations
- Subject of test: Gal-1 (Homo sapiens)
- Construct: made in house; host or cells: E. coli BL21(DE3)
- Sequence (P09382 whole entry): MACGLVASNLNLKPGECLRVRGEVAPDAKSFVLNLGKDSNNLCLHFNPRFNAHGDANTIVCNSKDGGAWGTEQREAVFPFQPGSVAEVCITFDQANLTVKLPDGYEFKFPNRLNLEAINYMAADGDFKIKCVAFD
- Run description: Pull-down assay with immobilized protein and LSM libraries
- Type: binding
- Experimental setup: H12 library; 1:1 binding assumed; read-out: Surface mapping KD (apparent)
Would you please state pKd, meaning minus log10 of the concentration in mol/L, as a bare number?

C[C@@H](CC(=O)N[C@H]1CCC[C@@H]1C(=O)N[C@H]1CCC[C@@H]1C(N)=O)NC(=O)[C@H]1CCC[C@@H]1NC(=O)[C@H]1CCC[C@@H]1NC(=O)C[C@H](Cc1c[nH]c2ccccc12)NC(=O)[C@H]1CCC[C@@H]1NC(=O)[C@H]1CCC[C@@H]1N | 3.41

For reference, reported pKd for `NCCCC[C@@H](CC(=O)N[C@H]1CCC[C@@H]1C(=O)N[C@H]1CCC[C@@H]1C(=O)N[C@H](CC(=O)N[C@H]1CCC[C@@H]1C(=O)N[C@H]1CCC[C@@H]1C(N)=O)Cc1ccccc1)NC(=O)[C@H]1CCC[C@@H]1NC(=O)[C@H]1CCC[C@@H]1N` stands at 3.53

* * *

- Subject of test: S100A4 (Homo sapiens)
- Construct: made in house; host or cells: Escherichia coli BL21(DE3)
- Sequence (P26447 whole entry): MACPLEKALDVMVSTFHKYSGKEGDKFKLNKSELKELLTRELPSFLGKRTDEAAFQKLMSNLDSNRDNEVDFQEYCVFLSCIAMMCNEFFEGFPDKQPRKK
- Run description: Pull-down assay with immobilized protein and LSM libraries
- Format: binding
- Experimental setup: H14 library; 1:1 binding assumed; read-out: Surface mapping KD (apparent)
Lab note: anything with Kd below 40 µM is marked True; values at 40 µM or higher are marked False.

Does NC(=O)[C@H]1CCCC[C@@H]1NC(=O)C[C@H](Cc1ccc(O)cc1)NC(=O)[C@H]1CCCC[C@@H]1NC(=O)[C@H]1CCCC[C@@H]1NC(=O)C[C@H](Cc1c[nH]c2ccccc12)NC(=O)[C@H]1CCCC[C@@H]1N [H14 WY] have Kd strictly under 40 µM?
True

Lab note: Kd threshold 40 µM. Does this molecule come in strictly under it? CC(C)C[C@@H](CC(=O)N[C@H]1CCCC[C@@H]1C(N)=O)NC(=O)[C@H]1CCCC[C@@H]1NC(=O)[C@H]1CCCC[C@@H]1NC(=O)C[C@H](C)NC(=O)[C@H]1CCCC[C@@H]1N [H14 AL]
True

Lab note: Kd threshold 40 µM. Does this molecule come in strictly under it? CSCC[C@@H](CC(=O)N[C@H]1CCCC[C@@H]1C(=O)N[C@H]1CCCC[C@@H]1C(=O)N[C@@H](CO)CC(=O)N[C@H]1CCCC[C@@H]1C(N)=O)NC(=O)[C@H]1CCCC[C@@H]1N [H14 MS]
False

Would you kindly verify if Kd of CC(C)[C@@H](CC(=O)N[C@H]1CCCC[C@@H]1C(N)=O)NC(=O)[C@H]1CCCC[C@@H]1NC(=O)[C@H]1CCCC[C@@H]1NC(=O)C[C@H](C)NC(=O)[C@H]1CCCC[C@@H]1N [H14 AV] is strictly less than 40 µM?
True

Say whether its Kd is strictly beneath 40 µM. Entry: CC[C@H](C)[C@@H](CC(=O)N[C@H]1CCCC[C@@H]1C(=O)N[C@H]1CCCC[C@@H]1C(=O)N[C@@H](CCCNC(=N)N)CC(=O)N[C@H]1CCCC[C@@H]1C(N)=O)NC(=O)[C@H]1CCCC[C@@H]1N [H14 IR]
False
